Molecular target: JAK2 (Homo sapiens, UniProt O60674)
Sequence (O60674 whole entry): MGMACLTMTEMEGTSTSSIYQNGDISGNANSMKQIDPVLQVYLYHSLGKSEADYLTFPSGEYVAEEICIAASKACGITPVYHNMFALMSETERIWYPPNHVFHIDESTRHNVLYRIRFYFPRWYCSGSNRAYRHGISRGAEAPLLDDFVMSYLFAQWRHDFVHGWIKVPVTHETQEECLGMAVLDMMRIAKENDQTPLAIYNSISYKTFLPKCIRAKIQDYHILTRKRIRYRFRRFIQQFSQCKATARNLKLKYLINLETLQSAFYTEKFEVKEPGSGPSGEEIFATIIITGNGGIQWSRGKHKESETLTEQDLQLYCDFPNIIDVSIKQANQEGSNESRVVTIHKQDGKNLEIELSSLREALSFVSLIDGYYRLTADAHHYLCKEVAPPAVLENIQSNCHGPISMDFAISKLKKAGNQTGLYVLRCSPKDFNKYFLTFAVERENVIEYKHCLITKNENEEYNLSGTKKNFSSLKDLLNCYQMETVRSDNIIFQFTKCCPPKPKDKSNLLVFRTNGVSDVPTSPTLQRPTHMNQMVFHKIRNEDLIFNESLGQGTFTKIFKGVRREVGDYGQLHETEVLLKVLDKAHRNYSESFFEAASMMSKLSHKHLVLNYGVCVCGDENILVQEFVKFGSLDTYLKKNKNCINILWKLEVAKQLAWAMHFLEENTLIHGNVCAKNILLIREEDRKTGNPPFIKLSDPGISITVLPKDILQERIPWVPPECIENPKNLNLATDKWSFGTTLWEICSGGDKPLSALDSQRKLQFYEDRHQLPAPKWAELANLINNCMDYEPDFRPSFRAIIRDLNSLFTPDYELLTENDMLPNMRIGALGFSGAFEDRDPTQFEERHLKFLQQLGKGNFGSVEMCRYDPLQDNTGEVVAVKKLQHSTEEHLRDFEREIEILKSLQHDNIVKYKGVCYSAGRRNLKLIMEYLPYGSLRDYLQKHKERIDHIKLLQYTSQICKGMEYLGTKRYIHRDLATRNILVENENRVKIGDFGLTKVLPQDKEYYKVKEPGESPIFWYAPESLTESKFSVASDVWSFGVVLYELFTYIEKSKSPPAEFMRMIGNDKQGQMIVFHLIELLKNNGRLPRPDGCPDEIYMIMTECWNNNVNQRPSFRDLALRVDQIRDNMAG
Test: JAK activity, Invitrogen SelectScreen Biochemical Kinase Profiling, Z'-LYTE
Details: ATP concentration at Km
pIC50: −log10 of the molar value.
readout-label: pIC50

{"columns": ["molecule", "val"],
 "data": [
  ["N#CCC(C1CCCC1)n1ncc2c1C(=O)c1c[nH]c3nccc-2c13 (centres unmarked)", "7.00 to 8.00"]
]}

Query: Which measured pIC50 value corresponds to N#CCC(C1CCCC1)n1cc2c(n1)C(=O)c1c[nH]c3nccc-2c13 (centres unmarked) ?
Reply: > 8.00

* * *

Molecular target: UniProt:P52333
Sequence (P52333 1-1124): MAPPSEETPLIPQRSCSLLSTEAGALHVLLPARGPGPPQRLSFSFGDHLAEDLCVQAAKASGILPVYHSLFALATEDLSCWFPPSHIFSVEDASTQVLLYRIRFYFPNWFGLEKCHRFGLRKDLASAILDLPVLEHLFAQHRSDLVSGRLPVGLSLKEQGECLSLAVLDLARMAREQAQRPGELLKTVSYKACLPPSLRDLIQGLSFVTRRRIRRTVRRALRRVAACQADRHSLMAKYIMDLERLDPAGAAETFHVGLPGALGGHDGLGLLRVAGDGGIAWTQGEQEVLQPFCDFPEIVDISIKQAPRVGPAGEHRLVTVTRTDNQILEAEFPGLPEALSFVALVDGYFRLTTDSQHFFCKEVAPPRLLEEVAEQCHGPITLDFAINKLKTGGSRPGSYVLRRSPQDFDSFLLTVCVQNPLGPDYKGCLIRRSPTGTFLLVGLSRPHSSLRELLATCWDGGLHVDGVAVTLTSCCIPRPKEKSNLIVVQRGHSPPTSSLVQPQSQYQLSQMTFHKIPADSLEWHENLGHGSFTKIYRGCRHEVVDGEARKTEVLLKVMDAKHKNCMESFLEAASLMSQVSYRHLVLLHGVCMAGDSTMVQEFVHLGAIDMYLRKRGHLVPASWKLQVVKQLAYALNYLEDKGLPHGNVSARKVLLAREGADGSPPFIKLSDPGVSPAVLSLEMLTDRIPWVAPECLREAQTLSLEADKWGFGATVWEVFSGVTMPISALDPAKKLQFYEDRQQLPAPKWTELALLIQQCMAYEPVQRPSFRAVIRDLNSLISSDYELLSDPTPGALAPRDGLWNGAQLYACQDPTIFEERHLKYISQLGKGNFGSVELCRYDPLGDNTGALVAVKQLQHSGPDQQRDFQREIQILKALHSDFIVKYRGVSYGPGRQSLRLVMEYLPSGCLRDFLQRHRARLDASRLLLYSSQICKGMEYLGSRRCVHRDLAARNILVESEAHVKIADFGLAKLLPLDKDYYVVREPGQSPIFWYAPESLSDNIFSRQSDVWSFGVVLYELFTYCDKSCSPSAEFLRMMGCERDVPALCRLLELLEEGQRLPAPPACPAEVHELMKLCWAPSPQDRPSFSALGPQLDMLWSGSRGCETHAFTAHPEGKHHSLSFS
Below: a set of entries, each annotated with reported IC50.

{"columns": ["compound", "assay-target", "IC50"],
 "data": [
  ["N#CCC(C1CCCC1)n1cc2c(n1)C(=O)c1c[nH]c3nccc-2c13 (centres unmarked)", "UniProt:P52333", "> 100 nM"]
]}

With those in mind, consider the next compound.
Query: Looking for the measured IC50 of N#CCC(C1CCCC1)n1ncc2c1C(=O)c1c[nH]c3nccc-2c13 (centres unmarked) , can you help?
Reply: > 100 nM
